TARGET_OF_ASSAY: T1, cTnI quality control product recombinant protein (human, UniProt P19429 1-210, limits assumed)
T1 construct: the assay paragraphs only say cTnI; also called cardiac troponin I; cTnI antigen
ASSAY_DETAILS: AMC biosensor, antibody on sensor
QUANTITY_KIND: koff (s⁻¹)

[
  {
    "BINDER": "Mutation 1-32 (antibody, V domains shown) VH: QVQLQQSGTELAKPGASVKFSCKASGYTFSTYWMYWIKQRPGQGLEWIGYLNPSSGHTDYNQRFKDKATLTADKSSSTAYMQLNSLTSEDSAVYYCARKYWGPFGMDYWGQGTSVTVSS VL: EIFLTQSPAIMSASPGEKVTMTCSASSTVSYVHWYQQKSGTSPKRWLYDTSKIASGIPVRFSGSGSGTSYSLTISSMEAEDAATYYCQQWSSNPYTFGGGTKLEIKR",
    "QUANTITY_KIND": "koff",
    "UNIT": "s⁻¹",
    "REPORTED_VALUE": "1.78e-05"
  },
  {
    "BINDER": "Mutation 1-13 (antibody, V domains shown) VH: QVQLQQSGTELAKPGASVKFSCKASGYTFSSYWMYWIKQRPGQGLEWIGYLNPSSGHTDYNQRFKDKATLTADKSSSTAYMQLNSLTSEDSAVYYCARRYYGPFGMDYWGQGTSVTVSS VL: EIFLTQSPAIMSASPGEKVTMTCSASSSVSYVHWYQQKSGTSPKRWIYDTSKIASGIPVRFSGSGSGTSYSLTISSMEAEDAATYYCQQWSTQPYTFGGGTKLEIKR",
    "QUANTITY_KIND": "koff",
    "UNIT": "s⁻¹",
    "REPORTED_VALUE": "7.82e-05"
  }
]
